All values here come from patent US5196428A.

- Tested on: human blood platelets in platelet-rich-plasma (ADP-induced aggregation)
- experiment_notes: In vitro inhibition of ADP-induced human platelet aggregation (aggregometer method of Born)
- Type: cell-based
- setup_conditions: 0.05 h, ADP 0.5 mcg/mL, human PRP, standard protocol: about 3 minutes incubation prior to agonist, read-out: IC50 vs ADP in human PRP
- Method: The aggregometer method of Born, G. V. R., J. Physiol., (London), 162, 67-68, (1962) as modified by Mustard, J. F., et al., J. Lab. […] Platelet rich plasma (PRP) was separated by centrifugation for 10 minutes at 1000 rpm (140 g) from citrated (3.8%) human blood. […] Dose response curves were obtained and Inhibitor Concentration (IC50) values calculated. The target compounds were evaluated as inhibitors of ADP-induced aggregation of human blood platelets in platelet-rich-plasma (PRP) in vitro.
measured_parameter: IC50 (mg/L)
Field format: number, assumed mg/L, no unit text.

Before answering, review these 5 worked examples.
| cpd_smiles | target_or_test_system | test_result |
| --- | --- | --- |
| CCOC(=O)NCCCOc1ccc2nc3[nH]c(=O)[nH]c3cc2c1 | human blood platelets in platelet-rich-plasma (ADP-induced aggregation) | 0.035 |
| O=C(NCCCOc1ccc2nc3[nH]c(=O)[nH]c3cc2c1)N1CCNCC1 | human blood platelets in platelet-rich-plasma (ADP-induced aggregation) | 3.8 |
| Cl.Cl.O=C(NCCCOc1ccc2nc3[nH]c(=O)[nH]c3cc2c1)N1CCN(CC2CCCC2)CC1 | human blood platelets in platelet-rich-plasma (ADP-induced aggregation) | 0.05 |
| Cl.Cl.O=C(NCCCOc1ccc2nc3[nH]c(=O)[nH]c3cc2c1)N1CCN(CC2CCCCC2)CC1 | human blood platelets in platelet-rich-plasma (ADP-induced aggregation) | 0.04 |
| O=C(NCCCOc1ccc2nc3[nH]c(=O)[nH]c3cc2c1)N1CCN(Cc2ccccc2)CC1 | human blood platelets in platelet-rich-plasma (ADP-induced aggregation) | 0.18 |

Incoming: Observed IC50 on human blood platelets in platelet-rich-plasma (ADP-induced aggregation) for CC(C)CN1CCN(C(=O)NCCCOc2ccc3nc4[nH]c(=O)[nH]c4cc3c2)CC1.Cl.Cl , please.
Outgoing: 0.09

Incoming: Observed IC50 on human blood platelets in platelet-rich-plasma (ADP-induced aggregation) for O=C(NCCCOc1ccc2nc3[nH]c(=O)[nH]c3cc2c1)N1CCN(Cc2cccs2)CC1 , please.
Outgoing: 0.09

----------
# solubility annotations
- experiment_notes: Aqueous solubility
- Type: physicochemical
- setup_conditions: water
Where a name gives a salt, the structure may show the parent alone.

Before answering, review these 2 worked examples.
| molecule | test_result |
| --- | --- |
| Cl.Cl.O=C(NCCCOc1ccc2nc3[nH]c(=O)[nH]c3cc2c1)N1CCN(c2ncccn2)CC1 [Cmpd 7v] | 100 µg/mL |
| O=C(NCCCOc1ccc2nc3[nH]c(=O)[nH]c3cc2c1)N1CCN(Cc2ccsc2)CC1 [Cmpd 7t, dihydrochloride] | 3000 µg/mL |

Incoming: Could you share which solubility value was measured for CCOC(=O)NCCCOc1ccc2nc3[nH]c(=O)[nH]c3cc2c1 [Cmpd 7a] ?
Outgoing: < 10000 µg/mL

Incoming: Could you share which solubility value was measured for CCCC(CCC)CN1CCN(C(=O)NCCCOc2ccc3nc4[nH]c(=O)[nH]c4cc3c2)CC1.Cl.Cl [Cmpd 7m] ?
Outgoing: 500 µg/mL

Incoming: Could you share which solubility value was measured for O=C(NCCCOc1ccc2nc3[nH]c(=O)[nH]c3cc2c1)N1CCNCC1 [Cmpd 7n] ?
Outgoing: < 500 µg/mL

Incoming: Could you share which solubility value was measured for O=C(NCCCOc1ccc2nc3[nH]c(=O)[nH]c3cc2c1)N1CCN(CC2CCCCCC2)CC1 [Cmpd 7g, dihydrochloride] ?
Outgoing: 2000 µg/mL

Incoming: Could you share which solubility value was measured for Cl.Cl.O=C(NCCCOc1ccc2nc3[nH]c(=O)[nH]c3cc2c1)N1CCN(CC2CCCC2)CC1 [Cmpd 7h] ?
Outgoing: 700 µg/mL

Incoming: Could you share which solubility value was measured for Cl.O=C(NCCCOc1ccc2nc3[nH]c(=O)[nH]c3cc2c1)N1CCC(Cc2ccccc2)CC1 [Cmpd 7e] ?
Outgoing: < 200 µg/mL

Incoming: Could you share which solubility value was measured for CCC(CC)CN1CCN(C(=O)NCCCOc2ccc3nc4[nH]c(=O)[nH]c4cc3c2)CC1.Cl.Cl [Cmpd 7l] ?
Outgoing: > 20000 µg/mL

Incoming: Could you share which solubility value was measured for CN(C(=O)NCCCOc1ccc2nc3[nH]c(=O)[nH]c3cc2c1)C1CCCCC1 [Cmpd 7b] ?
Outgoing: < 10000 µg/mL

----------
- Test system: human blood platelets in platelet-rich-plasma (ADP-induced aggregation)
- experiment_notes: In vitro inhibition of ADP-induced human platelet aggregation (aggregometer method of Born)
- Format: cell-based
- setup_conditions: 0.05 h, ADP 0.5 mcg/mL, human PRP, standard protocol: about 3 minutes incubation prior to agonist, read-out: IC50 vs ADP in human PRP
Structures can show the parent of a compound that is named as a salt.
# log10 of IC50 annotations
Scale: decimal log of IC50, IC50 in µg/mL.

Before answering, review these 3 worked examples.
| molecule | target_or_test_system | log10 of IC50 |
| --- | --- | --- |
| O=C(NCCCOc1ccc2nc3[nH]c(=O)[nH]c3cc2c1)N1CCOCC1 | human blood platelets in platelet-rich-plasma (ADP-induced aggregation) | 0.08 |
| Cl.Cl.O=C(NCCCOc1ccc2nc3[nH]c(=O)[nH]c3cc2c1)N1CCC(N2CCCCC2)CC1 | human blood platelets in platelet-rich-plasma (ADP-induced aggregation) | 0.72 |
| CN(C(=O)NCCCOc1ccc2nc3[nH]c(=O)[nH]c3cc2c1)C1CCCCC1 | human blood platelets in platelet-rich-plasma (ADP-induced aggregation) | -1.40 |

Incoming: Could you share which log10 of IC50 value was measured for Cl.O=C(NCCCOc1ccc2nc3[nH]c(=O)[nH]c3cc2c1)NC1CCCCC1 ?
Outgoing: -0.52

Incoming: Could you share which log10 of IC50 value was measured for Cl.Cl.O=C(NCCCOc1ccc2nc3[nH]c(=O)[nH]c3cc2c1)N1CCN(c2ncccn2)CC1 ?
Outgoing: -0.77

Incoming: Could you share which log10 of IC50 value was measured for O=C(NCCCOc1ccc2nc3[nH]c(=O)[nH]c3cc2c1)N1CCN(CCc2ccccc2)CC1 [Cmpd 7r, dihydrochloride] ?
Outgoing: -0.77

Incoming: Could you share which log10 of IC50 value was measured for O=C(NCCCOc1ccc2nc3[nH]c(=O)[nH]c3cc2c1)N1CCN(Cc2ccc(F)cc2)CC1 ?
Outgoing: -0.69

Incoming: Could you share which log10 of IC50 value was measured for Cl.O=C(NCCCOc1ccc2nc3[nH]c(=O)[nH]c3cc2c1)N1CCC(Cc2ccccc2)CC1 ?
Outgoing: -1.10

----------
# solubility annotations
- experiment_notes: Aqueous solubility
- Type: physicochemical
- setup_conditions: water
Structures can show the parent of a compound that is named as a salt.

| molecule | solubility |
| --- | --- |
| O=C(NCCCOc1ccc2nc3[nH]c(=O)[nH]c3cc2c1)N1CCN(Cc2cccs2)CC1 | > 10000 µg/mL |
| O=C(NCCCOc1ccc2nc3[nH]c(=O)[nH]c3cc2c1)N1CCN(CCc2ccccc2)CC1 [Cmpd 7r, dihydrochloride] | 250 µg/mL |

Incoming: Could you share which solubility value was measured for O=C(NCCCOc1ccc2nc3[nH]c(=O)[nH]c3cc2c1)N1CCN(c2ccccn2)CC1 ?
Outgoing: 500 µg/mL

Incoming: Could you share which solubility value was measured for O=C(NCCCOc1ccc2nc3[nH]c(=O)[nH]c3cc2c1)N1CCN(Cc2ccc(F)cc2)CC1 ?
Outgoing: > 20000 µg/mL

Incoming: Could you share which solubility value was measured for Cl.Cl.O=C(NCCCOc1ccc2nc3[nH]c(=O)[nH]c3cc2c1)N1CCN(CCC2CCCCC2)CC1 ?
Outgoing: 500 µg/mL

Incoming: Could you share which solubility value was measured for O=C(NCCCOc1ccc2nc3[nH]c(=O)[nH]c3cc2c1)N1CCN(Cc2ccc(Cl)cc2)CC1 [Cmpd 7p, dihydrochloride] ?
Outgoing: 200 µg/mL

----------
# IC50 annotations
- Tested on: human blood platelets in platelet-rich-plasma (ADP-induced aggregation)
- experiment_notes: In vitro inhibition of ADP-induced human platelet aggregation (aggregometer method of Born)
- Format: cell-based
- setup_conditions: 0.05 h, ADP 0.5 mcg/mL, human PRP, standard protocol: about 3 minutes incubation prior to agonist, read-out: IC50 vs ADP in human PRP
- Protocol: The aggregometer method of Born, G. V. R., J. Physiol., (London), 162, 67-68, (1962) as modified by Mustard, J. F., et al., J. Lab. […] Platelet rich plasma (PRP) was separated by centrifugation for 10 minutes at 1000 rpm (140 g) from citrated (3.8%) human blood. […] Dose response curves were obtained and Inhibitor Concentration (IC50) values calculated. The target compounds were evaluated as inhibitors of ADP-induced aggregation of human blood platelets in platelet-rich-plasma (PRP) in vitro.
Counter-ions that a name gives are not always drawn.
Field format: number, assumed µg/mL, no unit text.

Before answering, review these 4 worked examples.
| compound | unit_string | test_result |
| --- | --- | --- |
| O=C(NCCCOc1ccc2nc3[nH]c(=O)[nH]c3cc2c1)N1CCN(CC2CCCCCC2)CC1 [Cmpd 7g, dihydrochloride] | µg/mL | 0.03 |
| CCCC(CCC)CN1CCN(C(=O)NCCCOc2ccc3nc4[nH]c(=O)[nH]c4cc3c2)CC1.Cl.Cl | µg/mL | 0.07 |
| O=C(NCCCOc1ccc2nc3[nH]c(=O)[nH]c3cc2c1)N1CCN(Cc2ccsc2)CC1 [Cmpd 7t, dihydrochloride] | µg/mL | 0.15 |
| Cl.Cl.O=C(NCCCOc1ccc2nc3[nH]c(=O)[nH]c3cc2c1)N1CCN(CCC2CCCCC2)CC1 | µg/mL | 0.04 |

Incoming: Could you share which IC50 value was measured for CCC(CC)CN1CCN(C(=O)NCCCOc2ccc3nc4[nH]c(=O)[nH]c4cc3c2)CC1.Cl.Cl ?
Outgoing: 0.022

Incoming: Could you share which IC50 value was measured for O=C(NCCCOc1ccc2nc3[nH]c(=O)[nH]c3cc2c1)N1CCN(Cc2ccc(Cl)cc2)CC1 [Cmpd 7p, dihydrochloride] ?
Outgoing: 0.17

Incoming: Could you share which IC50 value was measured for O=C(NCCCOc1ccc2nc3[nH]c(=O)[nH]c3cc2c1)N1CCN(c2ccccn2)CC1 ?
Outgoing: 0.38

Incoming: Could you share which IC50 value was measured for O=C(NCCCOc1ccc2nc3[nH]c(=O)[nH]c3cc2c1)N1CCN(CC2CCCCO2)CC1 (centres unmarked) ?
Outgoing: 0.09
